Source listed as ChEMBL document CHEMBL1157627.

- TARGET ENTITY: UniProtKB P47900
- Sequence (P47900 whole entry): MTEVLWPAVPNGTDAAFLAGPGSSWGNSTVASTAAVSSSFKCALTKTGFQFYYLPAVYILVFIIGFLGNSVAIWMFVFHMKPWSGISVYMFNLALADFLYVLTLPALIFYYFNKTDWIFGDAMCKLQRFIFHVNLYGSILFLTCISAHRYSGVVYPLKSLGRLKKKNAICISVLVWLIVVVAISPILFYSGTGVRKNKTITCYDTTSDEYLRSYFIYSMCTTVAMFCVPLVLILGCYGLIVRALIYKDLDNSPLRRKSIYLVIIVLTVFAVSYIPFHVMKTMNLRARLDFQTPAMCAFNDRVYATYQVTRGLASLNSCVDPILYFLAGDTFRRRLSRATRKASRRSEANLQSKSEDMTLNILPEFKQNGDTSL
- ASSAY COMMENT: Agonist activity at G-protein coupled P2Y1 receptor expressed in human 1321N1 cells assessed as increase in calcium by Fura2 assay
- Type: functional, cell-based
- ASSAY SETUP: read-out: EC50
pEC50: −log10 of the molar value.
So basically: pEC50 at 7 or higher? That is fulfilled. Lower than 7? That is not fulfilled.

Sample answers from the record:
MOLECULE	CLASS LABEL
CSc1nc(N)c2ncn([C@@H]3O[C@H](COP(=O)([O-])OP(=O)([O-])CP(=O)([O-])OP(=O)([O-])OC[C@H]4O[C@@H](n5cnc6c(N)nc(SC)nc65)[C@H](O)[C@@H]4O)[C@@H](O)[C@H]3O)c2n1.[Na+].[Na+].[Na+].[Na+]	not fulfilled
Nc1ncnc2c1ncn2[C@H]1O[C@@H](COP(=O)(O)OP(=O)(O)OP(=O)(O)OC[C@@H]2O[C@H](n3cnc4c(N)ncnc43)[C@@H](O)[C@H]2O)[C@H](O)[C@@H]1O	fulfilled
CSc1nc(N)c2ncn([C@@H]3O[C@H](COP(=O)([O-])CP(=O)([O-])OP(=O)([O-])OP(=O)([O-])OC[C@H]4O[C@@H](n5cnc6c(N)nc(SC)nc65)[C@H](O)[C@@H]4O)[C@@H](O)[C@H]3O)c2n1.[Na+].[Na+].[Na+].[Na+]	not fulfilled

Problem: Determine whether this molecule has pEC50 no lower than 7: Nc1ncnc2c1ncn2[C@@H]1O[C@H](COP(=O)(O)OP(=O)(O)O)[C@@H](O)[C@H]1O [ADENOSINE DIPHOSPHATE]
Result: fulfilled
